test target: T1, Anti-HRP antibody(r)
T1 construct: Rabbit IgG, immobilised on a microplate; also called rabbit anti-HRP antibodies; anti-HRP antibody from a rabbit
assay notes: labelled peptide on antibody immobilised on microplate; antigen HRP
Ends that are not written are not given here. FAM = carboxyfluorescein (FAM) fluorescent label
readout name: fluorescence intensity at bottom (B) of microplate before antigen binding
One number for each entry.

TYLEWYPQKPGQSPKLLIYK (not fully specified (N-terminus), Synthetic 20-mer homologous to the FR2 region of the light chain; The label differs between experiments; also called L1 switching peptide; first peptide compound L1) [L1 peptide] = 15600

Batch lookup, fluorescence intensity at bottom (B) of microplate before antigen binding per entry.
1. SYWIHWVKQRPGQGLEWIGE (not fully specified (N-terminus), Synthetic 20-mer homologous to the FR2 region of the heavy chain; The fluorescent label differs between experiments; also called H1 switching peptide; third peptide compound H1) [H1 peptide]
2. {FAM}-VYYCFQGSHVPFTK (Synthetic 14-mer homologous to the FR3 or FR4 region of the light chain; also called L2 switching peptide; second peptide compound L2) [L2 peptide]

Ans.
1: 11800; 2: 12600

For this binder ( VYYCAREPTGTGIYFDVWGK (not fully specified (N-terminus), Synthetic 20-mer homologous to the FR3 or FR4 region of the heavy chain; The label differs between experiments; also called H2 switching peptide; fourth peptide compound H2) [H2 peptide] ), measured fluorescence intensity at bottom (B) of microplate before antigen binding is 122000
